Reference source for all entries: patent US4336263A

# Test system: female mice (NMRI strain)
# measurementNotes: in vivo
# Assay type: in vivo
# measurementParameters: oral administration; Nefopam = 1.00
# Experimental: The model used for testing the analgesic action was the tail flick test of D'AMOUR and SMITH (J. Pharmacol. 72 (1941), 74-79). In this experiment, the compounds to be tested were administered intraperitoneally or orally, as aqueous solutions (injection volume 10 ml/kg) to groups of 10 female mice (NMRI strain) weighing 20-22 g each. […] The time until the tail is drawn out of the radiation zone by reflex action is measured, and taken as the reaction time. […]
measurementKind: relative activity
Give bare numbers.

CC(=O)Oc1cccc([C@@]23CCCC[C@@H]2CN(C)CCO3)c1 (relative stereo) | 3.54

Here are 3 compounds. What values of relative activity were reported for them?
1. COc1cccc([C@@]23CCC[C@@H]2CN(C)CCO3)c1 (relative stereo)
2. COc1cccc([C@@]23CCCC[C@@H]2CN(C)CCO3)c1 (single isomer, unassigned) [9 (+)]
3. COc1cccc([C@@]23CCCC[C@@H]2CN(C)CCO3)c1 (single isomer, unassigned) [9 (-)]

[4.89, 1.97, 2.64]

Would you mind listing relative activity for each of the following compounds?
1. COc1cccc([C@@]23CCCC[C@@H]2CN(C)CCO3)c1 (relative stereo) [Example 3]
2. CN1CCOC(c2ccccc2)c2ccccc2C1 (stereo not shown) [Nefopam, reference compound]
3. CN1CCO[C@]2(c3cccc(O)c3)CCCC[C@@H]2C1 (relative stereo)

2.73
1.00
2.50

###

# measurementNotes: acute lethal dose (LD 50) for intraperitoneal administration
# Assay type: in vivo
# measurementParameters: Nefopam = 1.00
measurementKind: Relative toxicity
Numbers only.

CC(=O)Oc1cccc([C@@]23CCCC[C@@H]2CN(C)CCO3)c1 (relative stereo) [Example 7 β] | 0.30
COc1cccc([C@@]23CCCC[C@@H]2CN(C)CCO3)c1 (relative stereo) [Example 3] | 0.52
COc1cccc([C@@]23CCCC[C@@H]2CN(C)CCO3)c1 (single isomer, unassigned) [9 (+)] | 0.52
COc1cccc([C@@]23CCC[C@@H]2CN(C)CCO3)c1 (relative stereo) [Example 6] | 0.45
CN1CCO[C@]2(c3cccc(O)c3)CCCC[C@@H]2C1 (relative stereo) [Example 7] | 0.35
CN1CCOC(c2ccccc2)c2ccccc2C1 (stereo not shown) [Nefopam, reference compound] | 1.00

// next item, Relative toxicity requested
Consider COc1cccc([C@@]23CCCC[C@@H]2CN(C)CCO3)c1 (single isomer, unassigned) [9 (-)] . Its measured Relative toxicity is 0.40

###

# System: female mice (NMRI strain)
# measurementNotes: in vivo
# Format: in vivo
# measurementParameters: intraperitoneal administration; Nefopam = 1.00
Kindly state relative activity for each of the entries shown.
Give bare numbers.

COc1cccc([C@@]23CCC[C@@H]2CN(C)CCO3)c1 (relative stereo) | 1.73

For each of the items listed, what is its relative activity?
1. COc1cccc([C@@]23CCCC[C@@H]2CN(C)CCO3)c1 (relative stereo) [Example 3]
2. CN1CCO[C@]2(c3cccc(O)c3)CCCC[C@@H]2C1 (relative stereo)
3. COc1cccc([C@@]23CCCC[C@@H]2CN(C)CCO3)c1 (single isomer, unassigned) [9 (+)]

1. 0.71
2. 1.23
3. 0.48
